Attribution: patent US11766628B2

Method Summary: Partition of cannabinoids between degummed cannabis oil miscella and water/ethanol/base extraction solvent in a fiber conduit contactor
Format: physicochemical
Set-up: scale not given here
Study Conditions: Base K2CO3; H2O/EtOH/Base (wt %) 87.5/10/2.5
Each item that follows carries a reported Partition coefficient.
Returns: the value as a bare number; no unit string appended.

Examples with answers:
| Compound | Partition coefficient |
| --- | --- |
| C=C(C)[C@@H]1CCC(C)=C[C@H]1c1c(O)cc(CCCCC)c(C(=O)O)c1O | 0 |
| C=C(C)[C@@H]1CCC(C)=C[C@H]1c1c(O)cc(CCCCC)cc1O [CBD, cannabidiol, reference compound] | 0.1 |
| CCCCCc1cc2c(c(O)c1C(=O)O)[C@@H]1C=C(C)CC[C@H]1C(C)(C)O2 [THCA, tetrahydrocannabinolic acid] | 0.15 |

# next compound below
Input line: Supply reported Partition coefficient belonging to this compound: `CCCCCc1cc(O)c(C/C=C(\C)CCC=C(C)C)c(O)c1C(=O)O`
Output line: −0.1
